tested on: Rice; assay: Field transplant rice test, applied 0 DAT, rice injury; format: in vivo; details: Oryza sativa, 0 h, 0.75 Kg/Ha, 6 WAT, read-out: Percent Inhibition, Rice
inhibition at 750 g/ha reference
State just the number; it will be interpreted in %.

Looking for the measured inhibition at 750 g/ha of "CCCOCCN(C(=O)CCl)c1c(CC)cccc1CC" , can you help?
0

Follow-up item: "CCCCOCCN(C(=O)CCl)c1c(CC)cccc1CC"
3

Follow-up item: "CCCCOc1cccc(CC)c1N(C)C(=O)CCl"
2

Follow-up item: "CCCCOCN(C(=O)CCl)c1c(C)cccc1C(C)(C)C"
2

Follow-up item: "CCCCOCN(C(=O)CCl)c1c(CC)cccc1CC"
0
